Cited source: patent US20180118682A1

procedureDetails: aqueous solubility of compound (A) as a function of pH (UV-spectroscopy)
Format: physicochemical
conditionSummary: aqueous media, aqueous buffer; pH 6; R-enantiomer used
parameter: solubility

Just so you know, measured solubility for CC(C)(NC(=O)C(N)Cc1c[nH]c2ccccc12)C(=O)O (stereo not shown) [compound (A)] came out at ~10000 µg/mL

====

procedureDetails: aqueous solubility of compound (A) as a function of pH (UV-spectroscopy)
Type: physicochemical
conditionSummary: aqueous media, aqueous buffer; pH 4.6; R-enantiomer used
parameter: solubility

Just so you know, measured solubility for CC(C)(NC(=O)C(N)Cc1c[nH]c2ccccc12)C(=O)O (stereo not shown) came out at ~14 mg/mL
